All figures here come from paper PMC11480844.

B1: H2-Kb / Ed21 (parent complex)
chain 1: AQSVTQPDARVTVSEGASLQLRCKYSYFGTPYLFWYVQYPRQGLQLLLKYYPGDPVVQGVNGFEAEFSKSNSSFHLRKASVHWSDWAVYFCAVSMSGGYKVVFGSGTRLLVSP
chain 2: DSGVVQSPRHIIKEKGGRSVLTCIPISGHSNVVWYQQTLGKELKFLIQHYEKVERDKGFLPSRFSVQQFDDYHSEMNMSALELEDSAMYFCASSPRQTDYTFGSGTRLLVI
chain 3: not shown
chain 4: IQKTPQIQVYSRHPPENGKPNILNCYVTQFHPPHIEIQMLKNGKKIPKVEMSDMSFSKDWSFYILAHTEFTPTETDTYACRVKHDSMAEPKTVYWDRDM
chain 5: SIINFEKL

Variants of: B1
Experiment: % of reporter cells activated (NFAT-GFP), raw; further: test concentration or dose not given here
readoutLabel: ratio to parent

The following variants have reported results that may help.
>>> numericresult("chain 5 S1C")
0.604
>>> numericresult("chain 5 S1Q")
0.983
>>> numericresult("chain 5 F5A")
1.05
>>> numericresult("chain 5 N4V")
0.0259
>>> numericresult("chain 5 N4Q")
0.015
>>> numericresult("chain 5 S1N")
0.724
>>> numericresult("chain 5 L8T")
0.783
>>> numericresult("chain 5 S1F")
0.805

I: chain 5 L8H
II: chain 5 I3D
Q) Parameter check: reported ratio to parent is higher for which label, I or II ? # reply format: chosen label
A) I
(I: 1.03, II: 0.575)

a: chain 5 I3M
b: chain 5 L8V
c: chain 5 N4F
Q) Arrange the 3 variants from largest to smallest ratio to parent. Write the labels out in the order the request specifies.
A) a, b, c

a: chain 5 L8I
b: chain 5 N4K
Q) Parameter check: reported ratio to parent is higher for which label, a or b ? # reply format: chosen label
A) a
(a: 0.859, b: 0.566)
